The reported numbers originate from patent US11786534B2.

Catalogue of IC50 readings, one per entry.
targetSystem: human EGFR (L858R/C797S) (Homo sapiens, UniProt P00533, C797S/L858R)
Construct: purchased SignalChem
Sequence (P00533 25-1210 C797S/L858R): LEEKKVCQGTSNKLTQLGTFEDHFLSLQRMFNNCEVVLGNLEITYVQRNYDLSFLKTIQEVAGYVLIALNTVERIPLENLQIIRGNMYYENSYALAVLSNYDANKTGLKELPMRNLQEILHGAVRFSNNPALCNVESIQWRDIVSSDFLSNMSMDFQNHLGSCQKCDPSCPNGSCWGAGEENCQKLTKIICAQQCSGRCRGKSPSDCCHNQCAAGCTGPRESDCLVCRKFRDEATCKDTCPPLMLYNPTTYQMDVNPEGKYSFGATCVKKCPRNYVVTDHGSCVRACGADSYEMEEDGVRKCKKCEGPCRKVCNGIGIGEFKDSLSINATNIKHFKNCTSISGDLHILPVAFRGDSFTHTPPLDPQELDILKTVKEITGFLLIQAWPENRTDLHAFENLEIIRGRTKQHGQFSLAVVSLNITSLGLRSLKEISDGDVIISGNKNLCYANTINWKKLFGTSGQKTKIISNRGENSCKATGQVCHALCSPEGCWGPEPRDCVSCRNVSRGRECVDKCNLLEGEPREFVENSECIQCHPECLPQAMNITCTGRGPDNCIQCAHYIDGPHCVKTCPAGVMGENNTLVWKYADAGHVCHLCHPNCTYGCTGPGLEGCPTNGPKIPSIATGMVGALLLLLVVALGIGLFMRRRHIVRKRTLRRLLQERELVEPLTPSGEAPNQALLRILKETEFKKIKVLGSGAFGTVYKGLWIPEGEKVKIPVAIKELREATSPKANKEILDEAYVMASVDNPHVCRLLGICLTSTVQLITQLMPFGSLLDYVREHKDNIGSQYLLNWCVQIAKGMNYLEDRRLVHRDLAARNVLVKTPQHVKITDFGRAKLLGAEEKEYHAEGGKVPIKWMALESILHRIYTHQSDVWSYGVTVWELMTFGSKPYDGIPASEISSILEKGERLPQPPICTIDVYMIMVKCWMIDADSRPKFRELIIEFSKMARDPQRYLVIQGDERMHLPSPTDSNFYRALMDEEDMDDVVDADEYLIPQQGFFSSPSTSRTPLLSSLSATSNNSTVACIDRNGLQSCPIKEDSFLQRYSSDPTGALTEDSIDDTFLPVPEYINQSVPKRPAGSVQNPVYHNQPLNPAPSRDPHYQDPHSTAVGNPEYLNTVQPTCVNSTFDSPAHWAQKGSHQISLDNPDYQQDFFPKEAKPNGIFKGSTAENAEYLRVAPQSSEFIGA
testSummary: Inhibitory activity against EGFR (L858R/C797S) kinase
Assay type: biochemical
measurementConditions: Test Example 1, Table 5; ATP 4 μM, 90 minutes
Kindly answer with a numeric value in nM, unit omitted.

Some compounds with recorded IC50:
| compound | unitAbbreviation | IC50 |
| --- | --- | --- |
| C#Cc1c(-c2cnc3ccccc3c2)c2c(N)ncnc2n1C12CCC(NC(=O)c3ccnn3C)(CC1)CC2 [Example 6] | nM | 4.6 |
| C#Cc1c(-c2cnc3ccccc3c2)c2c(N)ncnc2n1C12CCC(NC(=O)c3cc(CF)nn3C)(CC1)C2 [Example 29] | nM | 0.39 |
| C#Cc1c(-c2cnc3ccccc3c2)c2c(N)ncnc2n1C12CCC(NC(=O)c3ccncc3)(CC1)C2 [Example 43] | nM | 0.49 |

Entry C#Cc1c(-c2cnc3ccccc3c2)c2c(N)ncnc2n1C12CCC(NC(=O)n3cccn3)(CC1)C2 [Example 21] , human EGFR (L858R/C797S) (Homo sapiens, UniProt P00533, C797S/L858R) data, IC50 value: 0.98

Entry C#Cc1c(-c2cnc3ccccc3c2)c2c(N)ncnc2n1C12CCC(NC(=O)c3ccno3)(CC1)C2 [Example 44] , human EGFR (L858R/C797S) (Homo sapiens, UniProt P00533, C797S/L858R) data, IC50 value: 0.94

Entry C#Cc1c(-c2cnc3ccccc3c2)c2c(N)ncnc2n1C12CCC(NC(=O)c3ccnn3C)(CC1)C2 [Example 24] , human EGFR (L858R/C797S) (Homo sapiens, UniProt P00533, C797S/L858R) data, IC50 value: 0.59

====

Catalogue of pIC50 readings, one per entry.
targetSystem: human EGFR (L858R/C797S) (Homo sapiens, UniProt P00533, C797S/L858R)
Construct: purchased SignalChem
testSummary: Inhibitory activity against EGFR (L858R/C797S) kinase
Assay type: biochemical
measurementConditions: Test Example 1, Table 5; ATP 4 μM, 90 minutes
# log scale: pIC50 equals minus log10 of the concentration in mol/L

Some molecules with recorded pIC50:
| structureSmilesString | obsValue |
| --- | --- |
| C#Cc1c(-c2cnc3ccccc3c2)c2c(N)ncnc2n1C12CCC(NCC#N)(CC1)C2 | 8.82 |
| C#Cc1c(-c2cnc3ccccc3c2)c2c(N)ncnc2n1C12CCC(NC(=O)c3cncc(C#N)c3)(CC1)C2 | 9.35 |
| C#Cc1c(-c2cnc3ccccc3c2)c2c(N)ncnc2n1C12CCC(N(C)C)(CC1)C2 | 8.62 |

Entry `C#Cc1c(-c2cnc3ccccc3c2)c2c(N)ncnc2n1C12CCC(NC(=O)c3cncc(OCF)n3)(CC1)C2` , human EGFR (L858R/C797S) (Homo sapiens, UniProt P00533, C797S/L858R) data, pIC50 value: 9.01

====

targetSystem: Ba/F3-EGFR (d746-750/T790M/C797S) (Homo sapiens, UniProt P00533, DEL746-750/T790M/C797S, cells depend on it)
Sequence (P00533 with tags, fused parts or gaps DEL746-750/T790M/C797S): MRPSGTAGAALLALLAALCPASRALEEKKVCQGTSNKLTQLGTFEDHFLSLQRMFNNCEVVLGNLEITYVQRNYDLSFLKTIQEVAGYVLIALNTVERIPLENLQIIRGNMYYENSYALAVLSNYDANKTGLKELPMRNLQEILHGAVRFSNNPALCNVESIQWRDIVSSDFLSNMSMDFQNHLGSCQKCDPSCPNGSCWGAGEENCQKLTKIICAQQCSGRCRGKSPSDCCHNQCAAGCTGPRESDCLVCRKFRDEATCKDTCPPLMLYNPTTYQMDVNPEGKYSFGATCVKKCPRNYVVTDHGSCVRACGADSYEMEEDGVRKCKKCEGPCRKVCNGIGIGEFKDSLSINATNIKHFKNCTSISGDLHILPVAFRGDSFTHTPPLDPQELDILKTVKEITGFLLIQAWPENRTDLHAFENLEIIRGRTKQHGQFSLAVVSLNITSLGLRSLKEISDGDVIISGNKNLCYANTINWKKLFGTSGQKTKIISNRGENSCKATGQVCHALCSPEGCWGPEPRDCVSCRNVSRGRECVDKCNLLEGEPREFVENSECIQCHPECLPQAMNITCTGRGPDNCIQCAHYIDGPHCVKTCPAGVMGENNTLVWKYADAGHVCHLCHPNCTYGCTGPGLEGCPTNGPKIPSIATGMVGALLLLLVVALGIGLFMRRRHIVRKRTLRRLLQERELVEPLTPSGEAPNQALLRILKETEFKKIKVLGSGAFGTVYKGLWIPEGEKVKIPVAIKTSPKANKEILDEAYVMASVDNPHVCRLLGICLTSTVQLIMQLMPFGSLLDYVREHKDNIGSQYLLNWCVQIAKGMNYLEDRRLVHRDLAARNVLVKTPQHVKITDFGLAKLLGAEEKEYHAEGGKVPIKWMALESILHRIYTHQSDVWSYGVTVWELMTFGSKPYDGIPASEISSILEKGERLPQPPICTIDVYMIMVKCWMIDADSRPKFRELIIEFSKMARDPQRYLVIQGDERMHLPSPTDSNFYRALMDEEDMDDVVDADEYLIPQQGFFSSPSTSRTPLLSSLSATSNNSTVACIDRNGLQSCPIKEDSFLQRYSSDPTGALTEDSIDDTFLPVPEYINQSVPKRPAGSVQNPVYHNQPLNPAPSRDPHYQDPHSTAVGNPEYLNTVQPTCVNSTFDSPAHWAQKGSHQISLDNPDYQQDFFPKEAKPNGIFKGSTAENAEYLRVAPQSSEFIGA
testSummary: Growth inhibition of cell line expressing EGFR (d746-750/T790M/C797S)
Format: cell-based, mouse
measurementConditions: Test Example 4, Table 13; same procedures as Test Example 2; read-out: BaF3_EGFR (d746-750/T790M/C797S) IC50 value
Catalogue of GI50 readings, one per entry.
Could you give the number and then its unit, please?

Some compounds with recorded GI50:
| structureSmilesString | GI50 |
| --- | --- |
| C#Cc1c(-c2cnc3ccccc3c2)c2c(N)ncnc2n1C12CCC(NC(=O)c3ccc4ncnn4c3)(CC1)C2 | 32 nM |
| C#Cc1c(-c2cnc3ccccc3c2)c2c(N)ncnc2n1C12CCC(NC(=O)c3cnco3)(CC1)C2 | 33 nM |
| C#Cc1c(-c2cnc3ccccc3c2)c2c(N)ncnc2n1C12CCC(NC(=O)c3noc(C)n3)(CC1)C2 | 59 nM |
| C#Cc1c(-c2cnc3ccccc3c2)c2c(N)ncnc2n1C12CCC(NC(C)=O)(CC1)C2 | 98 nM |
| C#Cc1c(-c2cnc3ccccc3c2)c2c(N)ncnc2n1C12CCC(NC(=O)c3cnns3)(CC1)C2 | 124 nM |

// GI50 lookup, compound = `C#Cc1c(-c2cnc3ccccc3c2)c2c(N)ncnc2n1C12CCC(NC(=O)C(F)F)(CC1)C2` , result: 110 nM

// GI50 lookup, compound = `C#Cc1c(-c2cnc3ccccc3c2)c2c(N)ncnc2n1C12CCC(NC(=O)c3nccn3C)(CC1)C2` , result: 31 nM

====

targetSystem: human EGFR (L858R/C797S) (Homo sapiens, UniProt P00533, C797S/L858R)
Construct: purchased SignalChem
testSummary: Inhibitory activity against EGFR (L858R/C797S) kinase
Type: biochemical
measurementConditions: Test Example 1, Table 5; ATP 4 μM, 90 minutes
quantity: IC50 (nM)
Kindly answer with a numeric value in nM, unit omitted.

| structureSmilesString | unitAbbreviation | IC50 |
| --- | --- | --- |
| C#Cc1c(-c2cnc3ccccc3c2)c2c(N)ncnc2n1C12CCC(N3CCN(C)C(=O)C3)(CC1)C2 | nM | 2.8 |
| C#Cc1c(-c2cnc3ccccc3c2)c2c(N)ncnc2n1C12CCC(NC(=O)c3ccnnc3)(CC1)C2 | nM | 0.37 |
| C#Cc1c(-c2cnc3ccccc3c2)c2c(N)ncnc2n1C12CCC(CN(C)C)(CC1)C2 | nM | 4 |
| C#Cc1c(-c2cnc3ccccc3c2)c2c(N)ncnc2n1C12CCC(NC(=O)OCC)(CC1)C2 | nM | 3.8 |
| C#Cc1c(-c2cnc3ccccc3c2)c2c(N)ncnc2n1C12CCC(CNC(=O)c3ccnn3C)(CC1)C2 | nM | 0.69 |

// IC50 lookup, compound = `C#Cc1c(-c2cnc3ccccc3c2)c2c(N)ncnc2n1C12CCC(NC(=O)c3nccn3C)(CC1)C2` , result: 0.84

// IC50 lookup, compound = `C#Cc1c(-c2cnc3ccccc3c2)c2c(N)ncnc2n1C12CCC(NC(=S)NCC)(CC1)C2` , result: 2.6

// IC50 lookup, compound = `C#Cc1c(-c2cnc3ccccc3c2)c2c(N)ncnc2n1C12CCC(O)(CC1)CC2` , result: 2.9

====

targetSystem: Ba/F3-EGFR (L858R/T790M/C797S) (Homo sapiens, UniProt P00533, T790M/C797S/L858R, cells depend on it)
Sequence (P00533 whole entry T790M/C797S/L858R): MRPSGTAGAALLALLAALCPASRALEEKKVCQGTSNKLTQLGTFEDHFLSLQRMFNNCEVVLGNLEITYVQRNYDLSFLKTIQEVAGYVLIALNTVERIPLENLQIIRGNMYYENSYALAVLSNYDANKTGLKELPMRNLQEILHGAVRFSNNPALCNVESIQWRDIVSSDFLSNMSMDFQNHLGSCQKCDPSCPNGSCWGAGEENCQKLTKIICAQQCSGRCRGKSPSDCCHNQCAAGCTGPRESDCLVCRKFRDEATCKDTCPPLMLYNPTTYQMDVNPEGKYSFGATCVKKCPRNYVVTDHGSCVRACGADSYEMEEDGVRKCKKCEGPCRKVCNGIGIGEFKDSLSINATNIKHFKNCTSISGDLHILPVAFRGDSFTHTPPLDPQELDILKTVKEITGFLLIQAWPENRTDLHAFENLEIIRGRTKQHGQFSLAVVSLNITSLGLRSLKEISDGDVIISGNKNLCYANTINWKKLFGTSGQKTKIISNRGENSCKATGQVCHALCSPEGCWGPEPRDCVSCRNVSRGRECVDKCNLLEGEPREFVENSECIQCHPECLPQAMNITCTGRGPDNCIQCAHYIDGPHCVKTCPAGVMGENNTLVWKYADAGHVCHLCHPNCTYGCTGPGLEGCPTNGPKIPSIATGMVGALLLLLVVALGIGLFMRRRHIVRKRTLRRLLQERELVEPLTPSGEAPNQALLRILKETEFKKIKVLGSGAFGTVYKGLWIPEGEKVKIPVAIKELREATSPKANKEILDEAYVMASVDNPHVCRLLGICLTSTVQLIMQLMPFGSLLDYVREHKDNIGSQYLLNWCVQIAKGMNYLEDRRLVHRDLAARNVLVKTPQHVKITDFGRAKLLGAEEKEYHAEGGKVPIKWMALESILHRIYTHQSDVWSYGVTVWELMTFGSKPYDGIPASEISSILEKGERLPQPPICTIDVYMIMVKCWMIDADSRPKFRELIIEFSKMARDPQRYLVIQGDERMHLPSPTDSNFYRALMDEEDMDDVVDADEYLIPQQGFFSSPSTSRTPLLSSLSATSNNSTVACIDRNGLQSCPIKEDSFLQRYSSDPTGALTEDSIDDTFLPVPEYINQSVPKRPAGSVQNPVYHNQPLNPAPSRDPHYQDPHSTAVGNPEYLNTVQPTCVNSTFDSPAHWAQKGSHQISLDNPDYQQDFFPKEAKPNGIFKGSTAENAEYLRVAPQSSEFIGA
testSummary: Growth inhibition of cell line expressing EGFR (L858R/T790M/C797S)
Assay type: cell-based, mouse
measurementConditions: Test Example 4, Table 13; same procedures as Test Example 2; read-out: BaF3_EGFR (L858R/T790M/C797S) IC50 value
Catalogue of GI50 readings, one per entry.
Kindly answer with a numeric value in nM, unit omitted.

Some compounds with recorded GI50:
| structureSmilesString | unitAbbreviation | obsValue |
| --- | --- | --- |
| C#Cc1c(-c2cnc3ccccc3c2)c2c(N)ncnc2n1C12CCC(NC(=O)C(F)F)(CC1)C2 | nM | 754 |
| C#Cc1c(-c2cnc3ccccc3c2)c2c(N)ncnc2n1C12CCC(NC(=O)c3ccco3)(CC1)C2 | nM | 843 |
| C#Cc1c(-c2cnc3ccccc3c2)c2c(N)ncnc2n1C12CCC(NC(=O)c3noc(C)n3)(CC1)C2 | nM | 448 |
| C#Cc1c(-c2cnc3ccccc3c2)c2c(N)ncnc2n1C12CCC(NC(=O)c3nccs3)(CC1)C2 | nM | 978 |
| C#Cc1c(-c2cnc3ccccc3c2)c2c(N)ncnc2n1C12CCC(NC(C)=O)(CC1)C2 | nM | 658 |

// GI50 lookup, compound = `C#Cc1c(-c2cnc3ccccc3c2)c2c(N)ncnc2n1C12CCC(NC(=O)c3ccno3)(CC1)C2` , result: 268

// GI50 lookup, compound = `C#Cc1c(-c2cnc3ccccc3c2)c2c(N)ncnc2n1C12CCC(NC(=O)[C@@H]3CN(C)CCO3)(CC1)C2` , result: 672

// GI50 lookup, compound = `C#Cc1c(-c2cnc3ccccc3c2)c2c(N)ncnc2n1C12CCC(NC(=O)c3cnco3)(CC1)C2` , result: 382

// GI50 lookup, compound = `C#Cc1c(-c2cnc3ccccc3c2)c2c(N)ncnc2n1C12CCC(NC(=O)c3cncc(F)c3)(CC1)C2` , result: 348

// GI50 lookup, compound = `C#Cc1c(-c2cnc3ccccc3c2)c2c(N)ncnc2n1C12CCC(NC(=O)c3ccnn3C3CC3)(CC1)C2` , result: 245

// GI50 lookup, compound = `C#Cc1c(-c2cnc3ccccc3c2)c2c(N)ncnc2n1C12CCC(NC(=O)c3ccc4ncnn4c3)(CC1)C2` , result: 283

// GI50 lookup, compound = `C#Cc1c(-c2cnc3ccccc3c2)c2c(N)ncnc2n1C12CCC(NC(=O)c3cnns3)(CC1)C2` , result: 1270

// GI50 lookup, compound = `C#Cc1c(-c2cnc3ccccc3c2)c2c(N)ncnc2n1C12CCC(NC(=O)c3nccn3C)(CC1)C2` , result: 649

// GI50 lookup, compound = `C#Cc1c(-c2cnc3ccccc3c2)c2c(N)ncnc2n1C12CCC(NC(=O)c3ccccc3)(CC1)C2` , result: 887

// GI50 lookup, compound = `C#Cc1c(-c2cnc3ccccc3c2)c2c(N)ncnc2n1C12CCC(N3CCOCC3)(CC1)C2` , result: 592
